Recorded values, source paper PMC9482650.

# Tested System: ARHGEF12, Q9NZN5-2
# Sequence (Q9NZN5 other isoform, or with tags, fused parts or gaps): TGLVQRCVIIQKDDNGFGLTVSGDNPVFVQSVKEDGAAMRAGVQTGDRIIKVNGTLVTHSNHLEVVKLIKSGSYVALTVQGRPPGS
# Protocol Summary: holdup assay
# Parameters: key: below the threshold = too weak to quantify, mostly under pKd 3.1 to 4
# Stated Conditions: plain residues with an end cap or a label only (N-terminal biotin on a linker: ado-ado)
Endpoint: pKd

Use these answered entries as a reference point.
>  <Binder>
DDENIRTSDV [PLEKHA2, Q9HB19]

>  <Recorded Value>
4.25

$$$$
>  <Binder>
HLRARKSEWV [GJD4, Q96KN9]

>  <Recorded Value>
below the threshold

$$$$
>  <Binder>
YYKRPVQEWV [MMP24, Q9Y5R2]

>  <Recorded Value>
3.62

$$$$
>  <Binder>
GNSVLKSTQF [SLC22A12, Q96S37]

>  <Recorded Value>
below the threshold

$$$$
>  <Binder>
HSGYRLNDYV [CLDN14, O95500]

>  <Recorded Value>
below the threshold

$$$$

Next binder, please.
Task: Fill in pKd for record QSARLWETSI [ADAM22, Q9P0K1]
Result: 4.73
